System: NCI-H226 lung
Protocol Summary: NCI-60 one-dose screen, 48 h (100 = growth as untreated, 0 = no growth, -100 = all killed)
Study Conditions: 10 µM unless noted
Protocol: Growth inhibition of the NCI-H226 human Non-Small Cell Lung tumor cell line is measured as a screen for anti-cancer activity. Cells are grown in 96 well plates and exposed to the test compound for 48 hours. Compounds are tested at a single concentration, which is 10^-5 M for most compounds. The reported endpoint is percent growth (GI% or GIPRCNT), where numbers from 0 - 100% represent growth inhibition, and numbers from -100% - 0 represent cell death. […]
Compounds without any hit were thinned out: in the full panel of roughly 83,000, 20% have a hit.
Measured Attribute: growth (%)
Could you give me the number in %? Just the number is fine.

Ask: Report growth on NCI-H226 lung for this entry: Cn1c2c(c3ccc(Cl)c(Cl)c31)C(C#N)C(C)(C)NC2=O (stereo not given)
Result: 59.4

Ask: Report growth on NCI-H226 lung for this entry: S=c1[nH]c(=S)c2c(-c3ccccc3)c(-c3ccccc3)oc2[nH]1
Result: 92.7

Ask: Report growth on NCI-H226 lung for this entry: C=Cc1cnc(Nc2ccc(OC)cc2)nc1NCCCNC(=O)C1CCC1
Result: 46.5

Ask: Report growth on NCI-H226 lung for this entry: O=C(Nc1ncc(Cc2cc(C(F)(F)F)ccc2Cl)s1)c1cccs1
Result: 76.5

Ask: Report growth on NCI-H226 lung for this entry: CNC(=O)c1cc(Oc2ccc3c(c2)sc2nc(-c4ccc(OC)cc4)cn23)ccn1
Result: 61.6

Ask: Report growth on NCI-H226 lung for this entry: COc1cccc(/C=N/NC(=O)c2ccccc2N2CCCC2)c1O
Result: 71.7

Ask: Report growth on NCI-H226 lung for this entry: Cc1ccc(CNc2ccc3nc(CCC(C)C)[nH]c3c2)cc1
Result: 89.8

Ask: Report growth on NCI-H226 lung for this entry: CN(C)CCN1C(=O)c2cccc3c(/C=C/CN4C(=O)c5cccc6cccc(c56)C4=O)ccc(c23)C1=O
Result: 98.7

Ask: Report growth on NCI-H226 lung for this entry: Clc1c(Cl)[n+](Cc2ccc3ccccc3c2)cn1Cc1ccc2ccccc2c1
Result: 44.4

Ask: Report growth on NCI-H226 lung for this entry: O=C(CCCCCCN1CC(=O)N2[C@H](c3ccc(Br)cc3)c3[nH]c4ccccc4c3C[C@@H]2C1=O)NO
Result: 80.2
